- System: Mus musculus
- measurement description: Anticonvulsant activity against sc pentylenetetrazole-induced convulsions in mice 30 minutes after ip administration of 300 mg/kg; A=Active
- Format: functional, organism-based
- Set-up: dose 300 mg/kg
Active and inactive are the calls of the source. No cut-off for these calls is given here.
measurement kind: Anticonvulsant activity

>>> df
                     smiles_string  value_measured
0     Cc1cccc(NC(=O)c2cccc(N)c2)c1          Active
1        Nc1cccc(C(=O)Nc2ccccc2)c1          Active
2       Cc1ccccc1NC(=O)c1cccc(N)c1          Active
3  Cc1cc(C)cc(NC(=O)c2cccc(N)c2)c1          Active

====

- System: Mus musculus
- measurement description: Compound was tested for toxicity by rotarod assay method in mice 30 min after ip administration of 600 mg/kg; A=Active
- Assay type: organism-based
- Design: dose 600 mg/kg, route intraperitoneal
- cond: in vivo, 0.5 h
measurement kind: Toxicity

Worked examples, 4 molecules total:
                     smiles_string  system_tested  measurement_kind  value_measured
0  Cc1cc(C)cc(NC(=O)c2cccc(N)c2)c1   Mus musculus          Toxicity          Active
1          Nc1ccccc1C(=O)Nc1ccccc1   Mus musculus          Toxicity          Active
2    Cc1ccc(NC(=O)c2ccccc2N)c(C)c1   Mus musculus          Toxicity          Active
3    Cc1cccc(C)c1NC(=O)c1cccc(N)c1   Mus musculus          Toxicity          Active

Give a short answer stating reported Toxicity for `Cc1cccc(NC(=O)c2ccccc2N)c1C` .
Active

====

- Test system: Mus musculus
- measurement description: Compound was tested for toxicity by rotarod assay method in mice 4 hours after ip administration of 600 mg/kg; A=Active
- Type: organism-based
- Design: dose 600 mg/kg, route intraperitoneal
- cond: in vivo
measurement kind: Toxicity

In [3]: df
Out[3]:
                   smiles_string  measurement_kind  value_measured
0      Nc1cccc(C(=O)Nc2ccccc2)c1          Toxicity          Active
1     Cc1ccccc1NC(=O)c1cccc(N)c1          Toxicity          Active
2  Cc1cccc(C)c1NC(=O)c1cccc(N)c1          Toxicity          Active
3   Cc1cccc(NC(=O)c2cccc(N)c2)c1          Toxicity          Active

Continue with the next compound.
Give a short answer stating reported Toxicity for `Cc1ccc(NC(=O)c2cccc(N)c2)cc1` .
Active

====

- measurement description: Protective index measured as the ratio between TD50 and ED50
- Assay type: ADME
- cond: read-out: PI
measurement kind: selectivity ratio
Format: numeric value only, no unit, no commentary.

Give a short answer stating reported selectivity ratio for `Cc1cccc(C)c1NC(=O)c1cccc(N)c1` .
21.1

====

- System: Mus musculus
- measurement description: Anticonvulsant activity against sc pentylenetetrazole induced convulsions in mice 30 minutes after ip administration of 600 mg/kg; A=Active
- Type: functional, organism-based
- Parameters: dose 600 mg/kg
Calls of active or inactive are those of the source. No cut-off for these calls is given here.
measurement kind: Anticonvulsant activity

In [3]: df
Out[3]:
                   smiles_string         measurement_kind  value_measured
0    Cc1cccc(NC(=O)c2ccccc2N)c1C  Anticonvulsant activity          Active
1  Cc1ccc(NC(=O)c2ccccc2N)c(C)c1  Anticonvulsant activity          Active
2  Cc1ccc(NC(=O)c2cccc(N)c2)cc1C  Anticonvulsant activity          Active
3       Cc1ccccc1NC(=O)c1ccccc1N  Anticonvulsant activity          Active
